// reported emission maximum for each item listed
# test.description: solvent given as SMILES
# condition.description: in CN(C)C=O
# output: bare number, implied unit nm

Record CCn1c2ccccc2c2cc(-c3cc(-c4ccc5c(c4)c4ccccc4n5CC)nc(-c4ccc(OC)cc4)n3)ccc21 . Reported emission maximum: 414

Data point: COc1ccc(-c2cc3ccc4cc(-c5ccc(OC)cc5)cc5ccc(c2)c3c45)cc1 ; emission maximum = 417.86

The value of emission maximum measured for the molecule CCn1c2ccccc2c2cc(-c3cc(-c4ccc5c(c4)c4ccccc4n5CC)nc(N4CCCCC4)n3)ccc21 turned out to be 417

For this molecule ( COc1ccc(-c2ccc(-c3ccc(C#N)s3)s2)cc1 ), measured emission maximum is 479

Short answer for c1ccc(N2c3ccccc3Sc3cc(-c4cccc5nc6ccccc6cc45)ccc32)cc1 : emission maximum was 495

Note to self: emission maximum recorded for Cc1nn(-c2ccccc2)c(C2=NN(c3ccc(Br)cc3)[C@@H](c3ccccc3)[C@@H]2c2ccccc2)c1C#N was 492

Recorded emission maximum (molecule COCCC1(CCOC)c2cc(-c3ccc(OC)cc3)ccc2-c2ccc(-c3ccc4c(c3)C(CCOC)(CCOC)c3cc(-c5ccc(OC)cc5)ccc3-4)cc21 ): 395

Entry CCn1c2ccccc2c2cc(C#Cc3cc(C#Cc4ccc5c(c4)c4ccccc4n5CC)nc(SC)n3)ccc21 ; emission maximum = 502

emission maximum measured on CCCCCCCCC1(CCCCCCCC)c2cc(-c3ccc(C(F)(F)F)cc3)ccc2-c2ccc(N(c3ccc(-n4c5ccccc5c5ccccc54)cc3)c3ccc4c(c3)C(CCCCCCCC)(CCCCCCCC)c3cc(-c5ccc(C(F)(F)F)cc5)ccc3-4)cc21 = 493

Measured emission maximum of O=S(=O)(c1ccccc1)c1ccc(-c2ccc3c(c2)c2cc(-c4ccc(S(=O)(=O)c5ccccc5)cc4)ccc2n3-c2ccccc2)cc1 : 431

The molecule identified as c1ccc(N(c2ccccc2)c2ccc3c(ccc4nc5ccc6cc(N(c7ccccc7)c7ccccc7)ccc6c5nc43)c2)cc1 registered its emission maximum at 626

Per the records, this molecule ( COc1cc(/C=C/c2ccccn2)c(OC)cc1C=O ) has emission maximum equal to 456

get_value(item= c1ccc(N(c2ccccc2)c2ccc(-c3cccc4nc5ccccc5cc34)cc2)cc1 , readout=emission maximum) returns 566

Given item CCC1=C(C)C2=C(c3cc(C(=O)Cl)cc(C4=C5C(C)=C(CC)C(C)=[N+]5[B-](F)(F)n5c(C)c(CC)c(C)c54)c3)c3c(C)c(CC)c(C)n3[B-](F)(F)[N+]2=C1C , the value recorded as its emission maximum is 560

Field emission maximum (entry COc1ccc2c(CC(=O)NN)coc2c1 ) reads 378

emission maximum reading for CN(C)c1ccc(-c2cc(-c3ccc(C#N)cc3)nn2C)cc1 : 590

Kindly note the recorded emission maximum for NCCCCCCCCCCCCN1C(=O)c2ccc3c4ccc5c6c(ccc(c7ccc(c2c37)C1=O)c64)C(=O)N(CCCCCCCCCCCCN)C5=O , which is 537

###

# test.description: solvent given as SMILES
# condition.description: in CC#N
observable: emission maximum

Here's what some known entries look like.
| compound | assay.result |
| --- | --- |
| c1ccc(N2c3ccccc3Sc3cc(-c4cccc5nc6ccccc6cc45)ccc32)cc1 | 504 nm |
| CC(=O)c1ccc(NC(=O)c2ccc(N(C)C)cc2)cc1 | 550 nm |
| C[N+]1=C(/C=C/C2=C3Oc4c(cc5c6c4CCCN6CCC5)C(c4ccccc4C(=O)O)=C3CCC2)C(C)(C)c2ccccc21 | 760 nm |

The recorded emission maximum for F[B-]1(F)n2cccc2C(c2c3ccccc3cc3ccccc23)=C2C=CC=[N+]21 is 519 nm

// field: emission maximum; key: Cc1ccc(NC(=O)c2sc(Br)nc2C)cc1 ; value = 399.5 nm

Briefly, emission maximum measured for C=Cc1cccc(OC)c1 : 330 nm

Record COc1ccc(-c2csc(-c3ccncc3)n2)cc1 , field emission maximum: 560 nm

So for COc1ccc2c(CC(=O)NN)coc2c1 , the logged emission maximum turned out to be 376 nm

Lab note: Nc1ccc2c(c1)C(=O)NC2=O gave emission maximum of 458 nm

The reported value for COc1ccc(-c2cc3c(s2)c(-c2ccccc2)cc(=O)n3C)cc1 in terms of emission maximum is 435 nm

The reported measurements were obtained from the Deep4Chem optical property database.
